method.notes: Plasma concentration in Sprague-Dawley rat at 1 mg/kg, ip after 4 hrs
Type: ADME, organism-based
value.type: concentration at 4 h (µM)
# unit: µM | format: bare number

Ask: Answer with reported concentration at 4 h of N[C@@]1(C(=O)O)C[C@@H](Sc2nc[nH]n2)[C@H]2[C@H](C(=O)O)[C@H]21
Reply: 0.314

---

assayed.system: Metabotropic glutamate receptor 3 (Homo sapiens, UniProt Q14832, D279E)
Sequence (Q14832 23-879 D279E limits assumed): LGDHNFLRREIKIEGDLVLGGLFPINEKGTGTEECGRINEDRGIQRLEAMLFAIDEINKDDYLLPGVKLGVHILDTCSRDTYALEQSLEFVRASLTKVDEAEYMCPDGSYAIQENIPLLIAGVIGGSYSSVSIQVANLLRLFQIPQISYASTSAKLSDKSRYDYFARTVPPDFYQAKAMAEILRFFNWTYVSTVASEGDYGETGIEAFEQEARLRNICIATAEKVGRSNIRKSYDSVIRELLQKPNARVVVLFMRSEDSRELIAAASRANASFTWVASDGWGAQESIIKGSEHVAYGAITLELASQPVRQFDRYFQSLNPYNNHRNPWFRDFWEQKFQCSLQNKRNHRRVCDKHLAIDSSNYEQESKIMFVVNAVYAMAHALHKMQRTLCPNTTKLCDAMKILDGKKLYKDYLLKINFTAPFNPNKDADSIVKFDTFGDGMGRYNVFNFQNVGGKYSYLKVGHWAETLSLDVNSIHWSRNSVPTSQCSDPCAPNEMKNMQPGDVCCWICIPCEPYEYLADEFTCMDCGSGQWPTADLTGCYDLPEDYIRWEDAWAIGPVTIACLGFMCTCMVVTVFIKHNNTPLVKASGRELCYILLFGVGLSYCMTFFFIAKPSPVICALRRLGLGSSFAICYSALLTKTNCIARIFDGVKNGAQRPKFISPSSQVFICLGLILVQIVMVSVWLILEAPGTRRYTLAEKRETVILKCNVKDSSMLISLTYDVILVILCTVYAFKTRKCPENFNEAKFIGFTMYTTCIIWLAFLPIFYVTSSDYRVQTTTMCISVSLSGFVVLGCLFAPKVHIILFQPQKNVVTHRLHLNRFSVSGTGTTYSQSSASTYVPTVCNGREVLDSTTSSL
method.notes: Agonist activity at human recombinant mGlu3 receptor D279E mutant expressed in AV12 cells assessed as stimulation of Ca2+ mobilization after 1 hr by FLIPR assay
Kindly state pEC50 for each of the entries shown.
# pEC50 = -log10(concentration in molar units)

Ask: Answer with reported pEC50 of N[C@@H](CCC(=O)O)C(=O)O
Reply: 5.38

Ask: Answer with reported pEC50 of N[C@@]1(C(=O)O)C[C@@H](Sc2nc[nH]n2)[C@H]2[C@H](C(=O)O)[C@H]21
Reply: 5.66
